System: RARa:RXR (NR concentration 270 nM, RXRa partner concentration 90 nM)
Test: PBM binding z-score (relative to random genomic background probes); higher = stronger binding; sequences stand for … in GC…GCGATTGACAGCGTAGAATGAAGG
Rule: PBM binding z-score under 4 gives FALSE, otherwise TRUE.

Hello, I need to know if CCTACTGGGCCAACAGGTCATTGATATCAACGTT has measured PBM binding z-score not below 4. Thanks!
FALSE

Answer whether PBM binding z-score of ACTAATAGTTGAGACGAGGGCAACCGATAGGTTG is greater than or equal to 4.
FALSE

Is it the case that CGAACTCGGTCAAGGACAGTGAATCTCCGCACGC has PBM binding z-score reaching or exceeding 4?
FALSE

Decide: is the reported value of PBM binding z-score for TCTAGCAGGCCAGAGGGTCACTCAAGAGGTACGG equal to or greater than 4?
FALSE

Hello, I need to know if ATTTGTAGGTTAGCTGGGGTCATTCAGACTAGGC has measured PBM binding z-score not below 4. Thanks!
TRUE

Hi team, for GCTATTAGTTGAAAGGGTAACCGAATGATTCTCG , is the recorded PBM binding z-score at or above 4?
FALSE

For this sequence, is measured PBM binding z-score 4 or higher? GCTTACGGATCAAAGGTTATAGCATGAATAGAAT
FALSE

Decide: is the reported value of PBM binding z-score for TCTCGGAGGACACGAAGGTCAGAACTTTCCAGAG equal to or greater than 4?
FALSE

Evaluate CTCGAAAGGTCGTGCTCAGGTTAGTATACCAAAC : PBM binding z-score at minimum 4?
TRUE

Exam item: decide whether the reported PBM binding z-score for AATACATGGTCACTAGGCCAGAGTAGGTACGAAT is at least 4.
FALSE

Does GCTAGTTGGTCAGTAAAAAGTCACACACCGGTCG have a reported PBM binding z-score of at least 4?
FALSE
